Record form. Attribute: IC50. Fill in for each entry.
Target: SARS-CoV-2 PLpro (Severe acute respiratory syndrome coronavirus 2)
Construct: containing 60 nM papain-like protease
Assay: biochemical
Conditions: 60 nM papain-like protease, 50 μM Z-RLRGG-AMC, pH 7.5, 37° C.; read-out: SARS-CoV-2 PLpro IC50
Structures can show the parent of a compound that is named as a salt.

## Input Report IC50 for COc1cc(-c2cn(C)nc2C)cc([C@@H](C)NC(=O)c2cc(N3CC4CN(C)CC4C3)ccc2C)c1 (stereo partly drawn) please.
## Output < 2 µM

## Input I would be grateful if you could share the reported IC50 for `Cc1ccc(N2CCN(C)CC2)cc1C(=O)N[C@H](C)c1cccc(Br)c1` .
## Output < 5 µM

## Input Entry `COc1cc(-c2cnn(C)c2)cc([C@@H](C)NC(=O)c2cc(N3CCNCC3)ccc2C)c1` : reported IC50 = ?
## Output < 2 µM

## Input I am curious: what IC50 value has been reported for `COc1cc(-c2cn(C)nc2C)cc([C@@H](C)NC(=O)c2cc(N3C[C@H]4C[C@@H]3CN4C)ccc2C)c1` ?
## Output < 2 µM

## Input Can you share its IC50? I mean this compound: `COCCOc1ccc([C@@H](C)NC(=O)c2cc(N3CCN(C)CC3)ccc2C)cc1-c1cnn(C)c1`
## Output < 2 µM

## Input Recorded IC50 of `Cc1ccc(-c2ccnc(N3CCNCC3)c2)cc1C(=O)N[C@H](C)c1cccc2ccccc12` , please.
## Output < 10 µM

## Input Give the measured IC50 of `Cc1ccc(N2CCN(C)CC2)cc1C(=O)N[C@H](C)c1cccc(-c2cccc(CCO)c2)c1` .
## Output < 2 µM

## Input Entry under review: `C[C@@H](NC(=O)c1cc(N2CCN(CC(F)(F)F)CC2)ccc1Cl)c1cccc2ccccc12` . Reported IC50?
## Output > 100 µM

## Input Which IC50 value is on record for COc1ccc([C@@H](C)NC(=O)c2cc(N3CC4CN(C)CC4C3)ccc2C)cc1OC (stereo partly drawn) ?
## Output < 5 µM

## Input # input compound: COc1cc(Br)cc([C@@H](C)NC(=O)c2cc(N3CC4CN(C)CC4C3)ccc2C)c1 (stereo partly drawn) ; wanted: its IC50
## Output < 2 µM

## Input Requested field: IC50. Item: COc1cc(-c2cnn(C)c2)cc([C@@H](C)NC(=O)c2cc(N3CCN4CCCC4C3)ccc2C)c1 (stereo partly drawn)
## Output < 2 µM

## Input So what does the record say about IC50 for `COc1ccc([C@@H](C)NC(=O)c2cc(N3CC4(CNC4)C3)ccc2C)cc1-c1cnn(C)c1` ?
## Output < 5 µM

## Input Name the recorded IC50 for `COc1cc(Br)cc([C@@H](C)NC(=O)c2cc(N3CCN(C)CC3)ccc2C)c1` .
## Output < 2 µM

## Input I am curious: what IC50 value has been reported for `COc1ccc([C@@H](C)NC(=O)c2cc(N3CCN(C)CC3)ccc2C)cc1OCC1CC1` ?
## Output < 2 µM

## Input What value of measured IC50 is listed for `COc1ccc([C@@H](C)NC(=O)c2cc(N3CCN(C)CC3)ccc2C)cc1O` ?
## Output < 5 µM

## Input Please look up its IC50: C[C@@H](NC(=O)c1ccnc(N2CCN(CCO)CC2)n1)c1cccc2ccccc12 [Example 317, hydrochloride salt]
## Output > 100 µM

## Input Fill blank: measured IC50 of the compound `Cc1ccc(N2CCN(C)CC2)cc1C(=O)N[C@H](C)c1cc(F)cc(Br)c1` is ____.
## Output < 2 µM

## Input Returns the measured IC50 for the input compound. Input: `C[C@@H](NC(=O)c1cccc(N2CCN(C)CC2)c1)c1cccc2ccccc12`
## Output < 2 µM

## Input // query IC50 value for entry Cc1ccc(N2CCN(C)CC2)cc1C(=O)N[C@H](C)c1cccs1 [Example 191, hydrochloride salt]
## Output < 100 µM

## Input I would be grateful if you could share the reported IC50 for `Cc1ccc(N2CCN(C)CC2)cc1C(=O)N[C@H](C)c1cccc(-c2ccc(C(=O)O)cc2)c1` .
## Output < 5 µM

## Input Requested read-out: IC50. Entry: `Cc1ccc(C2CC2)cc1C(=O)N[C@H](C)c1cccc2ccccc12`
## Output < 5 µM

## Input Query (compound): `Cc1ccc(N2CCN(C)CC2)cc1C(=O)N(C)[C@H](C)c1cccc2ccccc12` ; field requested: IC50
## Output < 100 µM

## Input Quick one: IC50 for `CNC(=O)c1cc(-c2cc([C@@H](C)NC(=O)c3cc(N4CCN(C)CC4)ccc3C)ccc2OC)cs1` ?
## Output < 2 µM

## Input Which value of IC50 has been reported for `Cc1ccc(N2CCN(C(=O)OC(C)(C)C)CC2)cc1C(=O)N[C@H](C)c1cccc2ccccc12` in the records?
## Output < 100 µM

// data source = patent US20240383852A1
